# assay.details: Thermodynamic solubility, shake-flask
# Type: physicochemical
# test.settings: thermodynamic from solid; aqueous phosphate buffer pH 7.4, 24 hours at 25° C.
In this section we review reported solubility at 24 h values for a set of compounds.

Reference set, count: 5
| structure.as.smiles | solubility at 24 h |
| --- | --- |
| COCC(F)(F)CN1[C@H](c2ccc(OCCN3CC(CF)C3)cn2)c2ccc3[nH]ncc3c2C[C@H]1C | 811 µM |
| C[C@@H]1Cc2c(ccc3[nH]ncc23)[C@@H](c2ccc(OCCN3CC(CF)C3)cn2)N1CC(F)F | 974 µM |
| COc1cc(OCCN2CC(CF)C2)ccc1[C@@H]1c2ccc3[nH]ncc3c2C[C@@H](C)N1CC(F)F | 364 µM |
| C[C@@H]1Cc2c(ccc3[nH]ncc23)[C@@H](c2ccc(OCCN3CC(CF)C3)cn2)N1CC1(F)CC1 | > 1000 µM |
| COc1cc(OCCN2CC(CF)C2)ccc1[C@@H]1c2ccc3[nH]ncc3c2C[C@@H](C)N1CC(C)(C)F | 263 µM |

Challenge: Return reported solubility at 24 h. Input compound: C[C@@H]1Cc2c(ccc3[nH]ncc23)[C@@H](c2ncc(OCCN3CC(CF)C3)cc2F)N1CC(F)(F)F
Response given: 1000 µM

Challenge: Return reported solubility at 24 h. Input compound: C[C@@H]1Cc2c(ccc3[nH]ncc23)[C@@H](c2ccc(OCCN3CC(CF)C3)cn2)N1CC(F)(F)F
Response given: > 1000 µM

Challenge: Return reported solubility at 24 h. Input compound: COc1cc(OCCN2CC(CF)C2)ccc1[C@@H]1c2ccc3[nH]ncc3c2C[C@@H](C)N1CC(C)C
Response given: > 1000 µM

Challenge: Return reported solubility at 24 h. Input compound: COc1cc(OCCN2CC(CF)C2)ccc1[C@@H]1c2ccc3[nH]ncc3c2C[C@@H](C)N1CC1(F)CC1
Response given: 957 µM

* * *

In this section we review reported DC50 values for a set of molecules.
# tested.target: ERα receptor in MCF-7 human ductal carcinoma breast cell line (Homo sapiens (Human), UniProt P03372)
# Sequence (P03372 whole entry): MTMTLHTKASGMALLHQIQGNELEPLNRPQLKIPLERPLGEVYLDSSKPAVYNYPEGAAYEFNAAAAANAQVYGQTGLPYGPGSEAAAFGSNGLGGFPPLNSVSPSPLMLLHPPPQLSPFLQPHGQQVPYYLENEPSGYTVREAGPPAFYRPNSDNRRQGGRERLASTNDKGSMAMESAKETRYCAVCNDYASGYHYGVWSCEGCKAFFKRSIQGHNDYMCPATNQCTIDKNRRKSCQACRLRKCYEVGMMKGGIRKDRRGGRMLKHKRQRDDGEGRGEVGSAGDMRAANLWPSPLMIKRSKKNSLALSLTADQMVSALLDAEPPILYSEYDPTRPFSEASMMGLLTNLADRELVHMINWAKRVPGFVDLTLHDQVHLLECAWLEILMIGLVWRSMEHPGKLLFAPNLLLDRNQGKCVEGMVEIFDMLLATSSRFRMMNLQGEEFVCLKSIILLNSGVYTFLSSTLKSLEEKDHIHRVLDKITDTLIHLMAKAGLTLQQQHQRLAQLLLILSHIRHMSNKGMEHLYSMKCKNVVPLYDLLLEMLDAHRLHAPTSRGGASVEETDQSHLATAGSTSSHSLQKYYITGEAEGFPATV
# assay.details: MCF-7 ER down regulation assay (immuno-fluorescence)
# Format: cell-based
# test.settings: MCF-7 cells, 18-22 hours incubation; read-out: ER down regulation IC50 value
Write down the numeric answer in pM and omit the unit.

Reference set, count: 2
| molecule | DC50, pM |
| --- | --- |
| C[C@@H]1Cc2c(ccc3[nH]ncc23)[C@@](C)(c2c(F)cc(OCCN3CC(CF)C3)cc2F)N1CC(C)(C)F [Example 2] | 88 |
| COc1cc(OCCN2CC(CF)C2)ccc1[C@@H]1c2ccc3[nH]ncc3c2C[C@@H](C)N1CC(C)(F)CF (single isomer, unassigned) [Example 21] | 130 |

Would you kindly look at the next entry?
Challenge: Return reported DC50. Input molecule: C[C@@H]1Cc2c(ccc3[nH]nc(F)c23)[C@@H](c2c(F)cc(OCCN3CC(CF)C3)cc2F)N1CC1(F)COC1 [Example 43]
Response given: 590

* * *

In this section we review reported CAMA1 Western % ER deg vs Fv values for a set of compounds.
# tested.target: estrogen receptor (ERα) in CAMA-1 human breast cancer cell line (Homo sapiens (Human), UniProt P03372)
# Sequence (P03372 whole entry): as above
# assay.details: Western blotting assay, CAMA-1 cells
# Assay type: cell-based
# test.settings: 100 nM compound, 48 h; normalised to vehicle (0%) and 100 nM fulvestrant (100%)
Write down the numeric answer in % and omit the unit.

Reference set, count: 3
| structure.as.smiles | reported.metric | result.number |
| --- | --- | --- |
| COCC(F)(F)CN1[C@H](c2ccc(OCCN3CC(CF)C3)cn2)c2ccc3[nH]ncc3c2C[C@H]1C | CAMA1 Western % ER deg vs Fv | 66 |
| COc1cc(OCCN2CC(CF)C2)ccc1[C@@H]1c2ccc3[nH]ncc3c2C[C@@H](C)N1CC(C)(C)F | CAMA1 Western % ER deg vs Fv | 74 |
| COc1cc(OCCN2CC(CF)C2)ccc1[C@@H]1c2ccc3[nH]ncc3c2C[C@@H](C)N1CC1(F)CC1 | CAMA1 Western % ER deg vs Fv | 87 |

Would you kindly look at the next entry?
Challenge: Return reported CAMA1 Western % ER deg vs Fv. Input compound: C[C@@H]1Cc2c(ccc3[nH]ncc23)[C@@H](c2ccc(OCCN3CC(CF)C3)cn2)N1CC(F)F
Response given: 82

* * *

# tested.target: ERα receptor in MCF-7 human ductal carcinoma breast cell line (Homo sapiens (Human), UniProt P03372)
# assay.details: MCF-7 ER down regulation assay (immuno-fluorescence)
# Format: cell-based
# test.settings: MCF-7 cells; >90% unless otherwise stated
# Protocol: MCF-7 ER Down Regulation Assay The ability of compounds to down-regulate Estrogen Receptor (ER) numbers was assessed in a cell based immuno-fluorescence assay using the MCF-7 human ductal carcinoma breast cell line. […] 20 μL of PBS was added to each well and the plates covered with a black plate seal and stored at 4° C. before being read. […]
In this section we review reported % downregulation (in brackets) in ER down regulation assay values for a set of compounds.
Write down the numeric answer in % and omit the unit.

Challenge: Return reported % downregulation (in brackets) in ER down regulation assay. Input compound: CC(C)(F)CN1[C@H](C(F)F)Cc2c(ccc3[nH]ncc23)[C@@]1(C)c1c(F)cc(OCCN2CC(CF)C2)cc1F [Example 4]
Response given: 80

Challenge: Return reported % downregulation (in brackets) in ER down regulation assay. Input compound: COCC(C)(F)CN1[C@H](c2ccc(OCCN3CC(CF)C3)cc2OC)c2ccc3[nH]ncc3c2C[C@H]1C (single isomer, unassigned) [Example 16]
Response given: 56

Challenge: Return reported % downregulation (in brackets) in ER down regulation assay. Input compound: COc1cc(OCCN2CC(C)C2)ccc1[C@@H]1c2ccc3[nH]ncc3c2C[C@@H](C)N1CC(C)(C)F [Example 23]
Response given: 67

Challenge: Return reported % downregulation (in brackets) in ER down regulation assay. Input compound: C[C@@H]1Cc2c(ccc3[nH]ncc23)[C@@H](c2c(F)cc(NCCN3CC(CF)C3)cc2F)N1CC(C)(C)F [Example 47]
Response given: 86

* * *

# tested.target: ERα receptor in MCF-7 human ductal carcinoma breast cell line (Homo sapiens (Human))
# assay.details: MCF-7 ER down regulation assay (immuno-fluorescence)
# Assay type: cell-based
# test.settings: MCF-7 cells, 18-22 hours incubation; read-out: ER down regulation IC50 value
In this section we review reported log10 of DC50 values for a set of compounds.
Short version: log10 scale, DC50, nM.

Reference set, count: 6
| compound | log10 of DC50 |
| --- | --- |
| C[C@@H]1Cc2c(ccc3[nH]ncc23)[C@@H](c2ccc(OCCN3CC(CF)C3)cc2)N1CC1(F)CC1 | -0.46 |
| COc1cc(OCCN2CC(CF)C2)cc(F)c1[C@@H]1c2ccc3[nH]ncc3c2C[C@@H](C)N1CC(C)(F)F | -0.96 |
| COc1cc(OCCN2CC(CF)C2)ccc1[C@@H]1c2ccc3[nH]ncc3c2C[C@@H](C)N1CC(F)(F)CF | -0.82 |
| C[C@@H]1Cc2c(ccc3[nH]ncc23)[C@@H](c2ccc(OCCN3CC(CF)C3)cn2)N1CC(F)(F)F | -0.68 |
| CC(C)(F)CN1[C@H](C(F)F)Cc2c(ccc3[nH]ncc23)[C@@]1(C)c1c(F)cc(OCCN2CC(CF)C2)cc1F | -0.80 |
| C[C@@H]1Cc2c(ccc3[nH]ncc23)[C@@H](c2ccc(OCCN3CC(CF)C3)cn2)N1CC(F)F | -0.27 |

Would you kindly look at the next entry?
Challenge: Lab note: ERα receptor in MCF-7 human ductal carcinoma breast cell line (Homo sapiens (Human)) assay, enter log10 of DC50 for COCC(C)(F)CN1[C@H](c2ccc(OCCN3CC(CF)C3)cc2OC)c2ccc3[nH]ncc3c2C[C@H]1C (single isomer, unassigned) [Example 17] here
Response given: -0.62

* * *

# assay.details: logD shake flask, 1-octanol/aqueous buffer
# Type: physicochemical
# test.settings: pH 7.4
In this section we review reported logD values for a set of molecules.
Number, no unit, nothing else.

Reference set, count: 3
| structure.as.smiles | logD |
| --- | --- |
| C[C@@H]1Cc2c(ccc3[nH]ncc23)[C@@H](c2ncc(OCCN3CC(CF)C3)cc2F)N1CC(F)(F)F | 2.8 |
| COc1cc(OCCN2CC(CF)C2)ccc1[C@@H]1c2ccc3[nH]ncc3c2C[C@@H](C)N1CC1(F)CC1 | 2.8 |
| C[C@@H]1Cc2c(ccc3[nH]ncc23)[C@@H](c2ccc(OCCN3CC(CF)C3)cn2)N1CC(F)F | 2.4 |

Challenge: Return reported logD. Input molecule: C[C@@H]1Cc2c(ccc3[nH]ncc23)[C@@H](c2ccc(OCCN3CC(CF)C3)cn2)N1CC1(F)CC1
Response given: 2.6

Challenge: Return reported logD. Input molecule: C[C@@H]1Cc2c(ccc3[nH]ncc23)[C@@H](c2ccc(OCCN3CC(CF)C3)cn2)N1CC(F)(F)F
Response given: 3

Challenge: Return reported logD. Input molecule: COc1cc(OCCN2CC(CF)C2)ccc1[C@@H]1c2ccc3[nH]ncc3c2C[C@@H](C)N1CC(F)F
Response given: 3.4

Challenge: Return reported logD. Input molecule: COCC(F)(F)CN1[C@H](c2ccc(OCCN3CC(CF)C3)cn2)c2ccc3[nH]ncc3c2C[C@H]1C
Response given: 2.4

Challenge: Return reported logD. Input molecule: COc1cc(OCCN2CC(CF)C2)ccc1[C@@H]1c2ccc3[nH]ncc3c2C[C@@H](C)N1CC(C)(C)F
Response given: 3.5

Challenge: Return reported logD. Input molecule: COc1cc(OCCN2CC(CF)C2)ccc1[C@@H]1c2ccc3[nH]ncc3c2C[C@@H](C)N1CC(C)C
Response given: 2.4
